meta.source: patent US10030044B2

Item-by-item account of IC50
# Tested on: HepG2 cell line
# experiment.description: In Vitro Inhibition of Hep G2 Hepatocytes (CellTiter-Glo, 72 hr)
# Assay type: cell-based
# condition.notes: Homo sapiens, HepG2 cells, 72 hr exposure

>  <compound>
Nc1ccn([C@@H]2O[C@H](CO)[C@@H](O)C2(F)F)c(=O)n1 [drawing 125]

>  <IC50>
≤ 0.01 µM

$$$$
>  <compound>
CC(C)OC(=O)[C@@H](C)NP(=O)(OC[C@H]1O[C@@H](n2ccc(N)nc2=O)C(F)(F)[C@@H]1O)Oc1ccccc1 (single isomer, unassigned) [Compound 4, Diastereomer 1]

>  <IC50>
> 10 µM

$$$$
>  <compound>
C[C@H](NP(=O)(OC[C@H]1O[C@@H](n2ccc(N)nc2=O)C(F)(F)[C@@H]1O)Oc1ccccc1)C(=O)OCc1ccccc1 (single isomer, unassigned) [drawing 124]

>  <IC50>
1 to 10 µM

$$$$
